- tested.target: STAT 6 (Mus musculus, UniProt P52633)
- Construct: An STAT 6 reporter cell CI/FW4 was constructed by the above operation; endogenous in cells; host or cells: CI/FW4 (FW4 cell stably carrying the pGL2-CI/bs luciferase reporter)
- Sequence (P52633 1-837): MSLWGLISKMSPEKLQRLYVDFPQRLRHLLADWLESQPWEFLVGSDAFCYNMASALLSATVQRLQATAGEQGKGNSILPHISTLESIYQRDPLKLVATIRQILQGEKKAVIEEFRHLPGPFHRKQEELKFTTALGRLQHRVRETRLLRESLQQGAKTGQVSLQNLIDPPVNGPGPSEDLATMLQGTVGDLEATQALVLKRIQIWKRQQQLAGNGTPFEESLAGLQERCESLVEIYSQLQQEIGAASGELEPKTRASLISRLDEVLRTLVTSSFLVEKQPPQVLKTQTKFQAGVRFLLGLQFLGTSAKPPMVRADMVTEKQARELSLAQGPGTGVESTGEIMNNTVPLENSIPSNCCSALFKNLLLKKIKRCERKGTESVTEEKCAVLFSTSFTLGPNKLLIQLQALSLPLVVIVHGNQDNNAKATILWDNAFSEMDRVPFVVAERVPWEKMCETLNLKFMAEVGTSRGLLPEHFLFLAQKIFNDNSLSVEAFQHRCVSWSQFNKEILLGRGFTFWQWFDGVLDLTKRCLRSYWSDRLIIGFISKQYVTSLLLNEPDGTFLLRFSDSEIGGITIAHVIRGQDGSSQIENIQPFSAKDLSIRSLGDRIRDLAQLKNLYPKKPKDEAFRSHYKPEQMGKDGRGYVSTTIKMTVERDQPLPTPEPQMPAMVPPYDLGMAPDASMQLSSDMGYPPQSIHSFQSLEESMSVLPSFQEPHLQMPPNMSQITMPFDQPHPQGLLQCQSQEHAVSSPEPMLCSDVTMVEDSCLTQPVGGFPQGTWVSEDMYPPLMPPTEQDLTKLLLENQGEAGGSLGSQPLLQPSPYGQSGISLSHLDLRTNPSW
- protocol.text: STAT 6-dependent reporter activity (IL-4-stimulated CI/FW4 luciferase reporter cell)
- Assay type: cell-based, human
- condition.parameters: inhibition ratio at 0.1 μM compound; IL-4-stimulated CI/FW4 cell, luciferase
readout.label: Inh (%) 0.1 μM

1) COc1ccccc1CNc1nc(Nc2ccc(N3CCOCC3)cc2)ncc1C(N)=O ... 95
2) NC(=O)c1cnc(Nc2ccc(OC3OC(CO)C(O)C(O)C3O)cc2)nc1NCc1c(F)ccc(F)c1F (centres unmarked) ... 25
3) Cl.NC(=O)c1cnc(Nc2ccc(N3CCCOCC3)cc2)nc1NCc1c(F)ccc(F)c1F ... 100
4) NC(=O)c1cnc(Nc2ccc(N3CCOCC3)cc2)nc1NCc1cc(Cl)ccc1F ... 100
5) CCOC(=O)CN1CCN(c2ccc(Nc3ncc(C(N)=O)c(NCc4c(F)ccc(F)c4F)n3)cc2)CC1 ... 100
6) CN(C)CC(=O)N1CCN(c2ccc(Nc3ncc(C(N)=O)c(NCc4ccccc4)n3)cc2)CC1.Cl.Cl ... 94
7) NC(=O)c1cnc(Nc2ccc(N3CCOCC3)c(F)c2)nc1NCc1c(F)cccc1F ... 97
8) COC1CCCN(c2ccc(Nc3ncc(C(N)=O)c(NCc4c(F)ccc(F)c4F)n3)cc2)C1.Cl.Cl (centres unmarked) ... 100
9) CN(CC1CN(c2ccc(Nc3ncc(C(N)=O)c(NCc4ccccc4)n3)cc2)CCO1)S(C)(=O)=O.Cl (centres unmarked) ... 91
10) NC(=O)c1cnc(Nc2ccc(N3CCN(CC(=O)O)CC3)cc2)nc1NCc1c(F)ccc(F)c1F ... 100
11) Cl.Cl.NC(=O)CN1CCN(c2ccc(Nc3ncc(C(N)=O)c(NCc4c(F)ccc(F)c4F)n3)cc2)CC1 ... 100

All figures here come from patent US8012959B2.
